Biological target: HNF4alpha2 (COS-7 nuclear extract) (Homo sapiens, UniProt P41235 1-474)
Sequence: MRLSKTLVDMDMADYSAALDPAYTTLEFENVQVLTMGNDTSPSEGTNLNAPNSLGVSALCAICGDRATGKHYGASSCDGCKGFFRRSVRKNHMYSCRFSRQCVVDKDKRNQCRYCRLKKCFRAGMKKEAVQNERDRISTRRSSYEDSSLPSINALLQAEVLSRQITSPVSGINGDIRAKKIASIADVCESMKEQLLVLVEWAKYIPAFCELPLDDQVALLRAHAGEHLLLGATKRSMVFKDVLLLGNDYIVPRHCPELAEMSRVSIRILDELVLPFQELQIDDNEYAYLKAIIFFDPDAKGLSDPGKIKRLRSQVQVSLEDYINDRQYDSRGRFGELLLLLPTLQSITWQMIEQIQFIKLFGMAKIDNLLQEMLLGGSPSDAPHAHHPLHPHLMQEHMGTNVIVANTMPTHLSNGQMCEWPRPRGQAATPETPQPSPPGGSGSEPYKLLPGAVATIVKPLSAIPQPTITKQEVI
Test: protein-binding microarray; COS-7 nuclear extract on double-stranded Agilent 4x180k PBM; binding buffer, salt, pH and temperature not given in the material; high values mean tight binding
Conditions: chain copies: 2; label: 3' end of strand 1 on the slide; dsDNA, one strand shown
Whole data set: some 18,000 sequences, median “log2 normalized intensity” near 0.39, cut for the highest 2% near 6.6. This excerpt belongs to a sample that is enriched for the highest values.
Experimental endpoint: binding signal (log2 normalized intensity)
# value in log2 normalized intensity; strip the unit string

Study these solved cases before continuing.
Chain sequence	Endpoint value
TGGATGGGGGAGGGGACTTCGCTGGAGGTGGCCTAGGGAGATTAGAGTATCGGTCGA	-0.382
CACAAAAAGGCTGTCACACTTGCCCTTTGCGCCTAGGGAGATTAGAGTATCGGTCGA	4.82

Query: State its binding signal on HNF4alpha2 (COS-7 nuclear extract) (Homo sapiens, UniProt P41235 1-474): `GAATCACTCACTGACCTCTTTTGGATTTTTGCCTAGGGAGATTAGAGTATCGGTCGA`
Response: 1.73
